Values compiled from patent US5849261.

molecular target: VIP receptor on human cells (human); experiment: competition with 125I-VIP on human PMNCs
No end group written: not given here.
Threshold check on IC50: strictly below 6 nM is Y; on or above 6 nM is N.

- HSDAVFTDNYTRLRKQMAVKKYLNSILNC (C-terminal C(BAT): S-(N6,N9-bis(2-mercapto-2-methylpropyl)-6,9-diazanonan-1-yl)cysteine; C-terminal amide; non-radioactive ReO complexed to the chelating moiety) [ReO-complexed P917]: Y
- HSDAVFTDNYTRLRKQMAVKKYLNSILNGGC-NH2 (also: non-radioactive ReO complexed to the chelating moiety) [ReO-complexed P916]: N
- AGCHSDAVFTDNYTRLRKQMAVKKYLNSILN-NH2 (also: non-radioactive ReO complexed to the chelating moiety) [ReO-complexed P915]: N
- HSDAVFTDNYTRLRKQMAVKKYLNSILN-NH2 [Vasoactive intestinal peptide (VIP)]: Y
